Molecular target: MAT2A homodimer (Homo sapiens)
Construct: inferred from the Ni sepharose purification and imidazole elution; made in house; host or cells: SF9 insect cells, recombinant baculovirus (Bac to Bac, pFASTBAC1)
Sequence (P31153 whole entry): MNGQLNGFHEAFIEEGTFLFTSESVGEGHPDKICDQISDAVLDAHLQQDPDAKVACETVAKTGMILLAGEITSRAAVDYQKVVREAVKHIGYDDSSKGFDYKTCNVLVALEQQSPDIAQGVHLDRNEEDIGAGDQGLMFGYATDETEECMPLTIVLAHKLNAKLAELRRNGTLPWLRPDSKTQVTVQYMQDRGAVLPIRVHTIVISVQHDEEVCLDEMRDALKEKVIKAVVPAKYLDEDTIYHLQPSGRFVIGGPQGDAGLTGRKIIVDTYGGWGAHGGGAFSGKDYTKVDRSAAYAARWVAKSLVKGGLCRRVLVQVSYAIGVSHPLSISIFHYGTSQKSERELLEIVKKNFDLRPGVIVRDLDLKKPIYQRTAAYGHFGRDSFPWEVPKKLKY
Assay: MAT2A biochemical assay (liberated phosphate, PiColorLock Gold)
Details: Table 5a; MAT2A biochemical assay; read-out: Enzyme Inhibition
pIC50: −log10 of the molar value.
What pIC50 was measured for each of the following?

Problem: Reported pIC50 for COc1ccc(N2Cc3cnc(NCC(F)(F)F)nc3N(c3ccc4ncccc4c3)C2=O)cc1 [Example 240] : what is it?
Solution: 6.00 to 7.00

Problem: Please give the measured pIC50 for this compound: Cn1cc2cc(N3Cc4cnc(NCC(F)(F)F)nc4N(c4ccc(OC(F)F)cc4)C3=O)ccc2n1 [Example 216]
Solution: > 7.00

Problem: # pIC50 lookup, item COc1ccc(N2Cc3cnc(NCC(F)(F)F)nc3N(c3ccc(OC(F)F)cc3)C2=O)cc1 [Example 235]
Solution: > 7.00

Problem: If you can, please state the reported pIC50 value of [2H]C([2H])([2H])Oc1ccc(N2C(=O)N(c3ccc4nn(C)cc4c3)Cc3cnc(NCC(F)F)nc32)cc1 [Example 420] .
Solution: > 7.00

Problem: Param item = CCOc1ccc2c(n1)N(c1ccc(OC)cc1)C(=O)N(c1ccc(C(=O)NC)cc1)C2 [Example 126] ; retrieve measured pIC50.
Solution: 6.00 to 7.00

Problem: Can you look up the measured pIC50 of COC(=O)Cc1ccc(N2C(=O)N(c3ccc(OC)cc3)Cc3cnc(NCC(F)(F)F)nc32)cc1 [Example 205] for me?
Solution: 5.00 to 6.00

Problem: Please give the measured pIC50 for this compound: CCNc1ncc2c(n1)N(c1ccc(OC(F)F)cc1)C(=O)N(c1ccc3nn(C)cc3c1)C2 [Example 190]
Solution: > 7.00

Problem: Can you look up the measured pIC50 of COc1ccc(N2Cc3ncc(NCC(F)(F)F)nc3N(c3ccc(OC(F)F)cc3)C2=O)cc1 [Example 415] for me?
Solution: > 7.00

Problem: Fill blank: measured pIC50 of the compound [2H]C([2H])([2H])Oc1ccc(N2C(=O)N(c3ccc4nn(C)cc4c3)Cc3ccc(OCCC(F)(F)F)nc32)cc1 [Example 166] is ____.
Solution: 6.00 to 7.00

Problem: I have this compound here, COc1ccc(N2Cc3cnc(SC)nc3N(c3ccc(C)cc3)C2=O)cc1 [Example 244] , and I need its recorded pIC50.
Solution: 5.00 to 6.00

Problem: What value of pIC50 has been reported for the following compound? COc1ccc(N2Cc3cnc(NCC(F)(F)F)nc3N(c3ccc4c(c3)CCO4)C2=O)cc1 [Example 253]
Solution: 6.00 to 7.00

Problem: Data request, read-out pIC50, for [2H]C([2H])([2H])Oc1ccc(N2C(=O)N(c3ccc4nn(CC)cc4c3)Cc3ccc(OCC(F)F)nc32)cc1 [Example 124]
Solution: > 7.00

Problem: // query pIC50 value for entry Cn1cc2cc(N3Cc4ccc(OCC(F)F)nc4N(c4ccc5oc(N)nc5c4)C3=O)ccc2n1 [Example 411]
Solution: > 7.00

Problem: What value of pIC50 has been recorded for this entry: [2H]C([2H])([2H])Oc1ccc(N2C(=O)N(c3ccc4nn(CC(F)F)cc4c3)Cc3ccc(OCC(F)F)nc32)cc1 [Example 119]
Solution: > 7.00

Problem: Item under review: COc1ccc(N2Cc3cnc(NCC(F)(F)F)nc3N(c3ccc(-c4cn[nH]n4)cc3)C2=O)cc1 [Example 192] . Reported pIC50?
Solution: 6.00 to 7.00

The measurements presented in this section are drawn from patent US20220098203A1.
